- study_target: UniProt P21731
- experiment_description: Activity at TP receptor at 1 uM by FLIPR assay
endpoint: Activity (%)

Use these answered entries as a reference point.
Cc1cn(Cc2ccc(Cl)cc2Cl)c2c(-c3nnc(NS(=O)(=O)c4ccc(Cl)c(Cl)c4)o3)cc(F)cc12	0
Cc1cn(Cc2ccc(Cl)cc2Cl)c2c(-c3nc(NS(=O)(=O)c4cc(Cl)c(Cl)s4)no3)cc(F)cc12	5
Cc1cn(Cc2ccc3ccccc3c2)c2c(-c3cc(NS(=O)(=O)c4ccc(F)c(F)c4)no3)cc(F)cc12	-2
Cc1cn(Cc2ccc(Cl)cc2Cl)c2c(-c3nnc(NC(=O)c4ccc(F)c(F)c4)o3)cc(F)cc12	-1
Cc1cn(Cc2ccc(Cl)cc2Cl)c2c(-c3nnc(NS(=O)(=O)c4ccc(F)c(F)c4)o3)cc(F)cc12	9

[a] Cc1cn(Cc2ccc(F)c(F)c2)c2c(-c3cc(NS(=O)(=O)c4ccc(F)c(F)c4)no3)cc(F)cc12
[b] Cc1cn(Cc2ccc(F)c(F)c2)c2c(-c3cc(NS(=O)(=O)c4ccc(F)c(F)c4F)no3)cc(F)cc12
[c] Cc1cn(Cc2ccc(F)c(F)c2)c2c(-c3cc(NS(=O)(=O)c4cc(Cl)c(Cl)s4)no3)cc(F)cc12
[d] Cc1cn(Cc2ccc(Cl)cc2Cl)c2c(-c3nnc(NS(=O)(=O)c4cc(F)c(F)cc4F)o3)cc(F)cc12
[e] Cc1cn(Cc2ccc3ccccc3c2)c2c(-c3cc(NS(=O)(=O)c4ccc(Cl)c(Cl)c4)no3)cc(F)cc12
Order these by Activity, descending, and give the full ranking. Labels, ranked as asked.
d, b, a, c, e

----------
- study_target: Prostaglandin E2 receptor EP4 subtype (Homo sapiens, UniProt P35408)
- Sequence (P35408 whole entry): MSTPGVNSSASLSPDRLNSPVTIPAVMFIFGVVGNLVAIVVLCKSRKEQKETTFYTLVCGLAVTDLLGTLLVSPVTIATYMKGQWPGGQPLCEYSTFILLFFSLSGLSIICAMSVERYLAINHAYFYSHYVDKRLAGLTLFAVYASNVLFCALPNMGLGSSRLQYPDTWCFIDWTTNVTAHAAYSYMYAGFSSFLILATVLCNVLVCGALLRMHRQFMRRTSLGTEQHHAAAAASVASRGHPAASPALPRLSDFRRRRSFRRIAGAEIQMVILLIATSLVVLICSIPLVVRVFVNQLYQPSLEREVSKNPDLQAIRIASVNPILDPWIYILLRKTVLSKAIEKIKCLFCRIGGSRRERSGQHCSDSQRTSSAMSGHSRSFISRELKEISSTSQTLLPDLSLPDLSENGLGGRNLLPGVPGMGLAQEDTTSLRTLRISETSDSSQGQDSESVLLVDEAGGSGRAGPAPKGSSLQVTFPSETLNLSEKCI
- experiment_description: Activity at EP4 receptor at 10 uM by FLIPR assay
endpoint: Activity (%)

Use these answered entries as a reference point.
Cc1cn(Cc2ccc3ccccc3c2)c2c(-c3cc(NS(=O)(=O)c4ccc(Cl)c(Cl)c4)no3)cc(F)cc12	3
Cc1cn(Cc2ccc3ccccc3c2)c2c(-c3cc(NS(=O)(=O)c4cc(Cl)c(Cl)s4)no3)cc(F)cc12	10
Cc1cn(Cc2ccc(F)c(F)c2)c2c(-c3cc(NS(=O)(=O)c4cc(Cl)c(Cl)s4)no3)cc(F)cc12	18
Cc1cn(Cc2ccc(F)c(F)c2)c2c(-c3cc(NS(=O)(=O)c4ccc(F)c(F)c4)no3)cc(F)cc12	18
Cc1cn(Cc2ccc(Cl)cc2Cl)c2c(-c3nnc(NC(=O)c4ccc(F)c(F)c4)o3)cc(F)cc12	62

[I] Cc1cn(Cc2ccc3ccccc3c2)c2c(-c3cc(NS(=O)(=O)c4cc(F)c(F)cc4F)no3)cc(F)cc12
[II] Cc1cn(Cc2ccc(Cl)cc2Cl)c2c(-c3nnc(NS(=O)(=O)c4ccc(Cl)c(Cl)c4)o3)cc(F)cc12
When the recorded Activity values are compared, which is smaller: that of I or that of II ? Label of pick, please.
II

[1] Cc1cn(Cc2ccc(Cl)cc2Cl)c2c(-c3nnc(NS(=O)(=O)c4ccc(F)c(F)c4)o3)cc(F)cc12
[2] Cc1cn(Cc2ccc(Cl)cc2Cl)c2c(-c3nnc(NS(=O)(=O)c4cc(F)c(F)cc4F)o3)cc(F)cc12
// max by Activity over [ 1 , 2 ] Label of pick, please.
2
(2: 84%, 1: 32%)

----------
- study_target: Prostaglandin F2-alpha receptor (Homo sapiens, UniProt P43088)
- Sequence (P43088 whole entry): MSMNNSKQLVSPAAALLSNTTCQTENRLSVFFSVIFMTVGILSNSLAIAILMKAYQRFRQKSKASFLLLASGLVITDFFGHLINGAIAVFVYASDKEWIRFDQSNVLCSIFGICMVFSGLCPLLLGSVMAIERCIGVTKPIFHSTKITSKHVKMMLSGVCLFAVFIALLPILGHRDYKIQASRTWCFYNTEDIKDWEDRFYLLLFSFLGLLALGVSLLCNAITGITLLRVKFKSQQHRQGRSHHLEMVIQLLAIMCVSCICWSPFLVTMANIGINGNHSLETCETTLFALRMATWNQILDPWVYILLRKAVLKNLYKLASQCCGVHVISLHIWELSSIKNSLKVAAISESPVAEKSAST
- experiment_description: Activity at FP receptor at 10 uM by FLIPR assay
endpoint: Activity (%)

Use these answered entries as a reference point.
Cc1cn(Cc2ccc3ccccc3c2)c2c(-c3cc(NS(=O)(=O)c4cc(Cl)c(Cl)s4)no3)cc(F)cc12	7
Cc1cn(Cc2ccc3ccccc3c2)c2c(-c3cc(NS(=O)(=O)c4ccc(Cl)c(Cl)c4)no3)cc(F)cc12	-6
Cc1cn(Cc2ccc(F)c(F)c2)c2c(-c3cc(NS(=O)(=O)c4ccc(F)c(F)c4)no3)cc(F)cc12	21
Cc1cn(Cc2ccc(F)c(F)c2)c2c(-c3cc(NS(=O)(=O)c4ccc(F)c(F)c4F)no3)cc(F)cc12	99

[1] Cc1cn(Cc2ccc(Cl)cc2Cl)c2c(-c3nnc(NS(=O)(=O)c4ccc(Cl)c(Cl)c4)o3)cc(F)cc12
[2] Cc1cn(Cc2ccc(F)c(F)c2)c2c(-c3cc(NS(=O)(=O)c4cc(Cl)c(Cl)s4)no3)cc(F)cc12
When the recorded Activity values are compared, which is smaller: that of 1 or that of 2 ? Label of pick, please.
1

[1] Cc1cn(Cc2ccc(Cl)cc2Cl)c2c(-c3nnc(NC(=O)c4ccc(F)c(F)c4)o3)cc(F)cc12
[2] Cc1cn(Cc2ccc3ccccc3c2)c2c(-c3cc(NS(=O)(=O)c4ccc(F)c(F)c4)no3)cc(F)cc12
// max by Activity over [ 1 , 2 ] Label of pick, please.
1

----------
- study_target: UniProtKB P35408
- experiment_description: Activity at EP4 receptor at 0.1 uM by FLIPR assay
endpoint: Activity (%)

Cc1cn(Cc2ccc(Cl)cc2Cl)c2c(-c3nnc(NS(=O)(=O)c4cc(F)c(F)cc4F)o3)cc(F)cc12	9

[A] Cc1cn(Cc2ccc(Cl)cc2Cl)c2c(-c3nnc(NC(=O)c4ccc(F)c(F)c4)o3)cc(F)cc12
[B] Cc1cn(Cc2ccc(Cl)cc2Cl)c2c(-c3nc(NS(=O)(=O)c4cc(Cl)c(Cl)s4)no3)cc(F)cc12
[C] Cc1cn(Cc2ccc(F)c(F)c2)c2c(-c3cc(NS(=O)(=O)c4ccc(F)c(F)c4)no3)cc(F)cc12
Hi! Can you put these in order of Activity, lowest number first? Labels, ranked as asked.
B, A, C
(B: -21%, A: 9%, C: 18%)

----------
- study_target: Thromboxane A2 receptor (Homo sapiens)
- Sequence (whole entry): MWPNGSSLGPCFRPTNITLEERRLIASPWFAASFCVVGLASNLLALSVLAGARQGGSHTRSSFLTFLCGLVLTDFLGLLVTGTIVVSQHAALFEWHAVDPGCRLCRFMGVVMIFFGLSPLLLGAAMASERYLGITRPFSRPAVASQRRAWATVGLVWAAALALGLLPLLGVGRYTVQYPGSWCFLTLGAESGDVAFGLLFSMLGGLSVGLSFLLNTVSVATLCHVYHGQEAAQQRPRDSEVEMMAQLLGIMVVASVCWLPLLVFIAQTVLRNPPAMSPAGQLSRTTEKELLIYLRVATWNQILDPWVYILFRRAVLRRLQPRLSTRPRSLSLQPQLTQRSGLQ
- experiment_description: Activity at TP receptor at 0.1 uM by FLIPR assay
endpoint: Activity (%)

Cc1cn(Cc2ccc(F)c(F)c2)c2c(-c3cc(NS(=O)(=O)c4cc(Cl)c(Cl)s4)no3)cc(F)cc12	3
Cc1cn(Cc2ccc(F)c(F)c2)c2c(-c3cc(NS(=O)(=O)c4ccc(F)c(F)c4F)no3)cc(F)cc12	5

[P] Cc1cn(Cc2ccc(Cl)cc2Cl)c2c(-c3nnc(NS(=O)(=O)c4cc(F)c(F)cc4F)o3)cc(F)cc12
[Q] Cc1cn(Cc2ccc3ccccc3c2)c2c(-c3cc(NS(=O)(=O)c4ccc(Cl)c(Cl)c4)no3)cc(F)cc12
When the recorded Activity values are compared, which is smaller: that of P or that of Q ? Label of pick, please.
P

----------
- study_target: Prostaglandin E2 receptor EP1 subtype (Homo sapiens) (UniProt P34995)
- Sequence (P34995 whole entry): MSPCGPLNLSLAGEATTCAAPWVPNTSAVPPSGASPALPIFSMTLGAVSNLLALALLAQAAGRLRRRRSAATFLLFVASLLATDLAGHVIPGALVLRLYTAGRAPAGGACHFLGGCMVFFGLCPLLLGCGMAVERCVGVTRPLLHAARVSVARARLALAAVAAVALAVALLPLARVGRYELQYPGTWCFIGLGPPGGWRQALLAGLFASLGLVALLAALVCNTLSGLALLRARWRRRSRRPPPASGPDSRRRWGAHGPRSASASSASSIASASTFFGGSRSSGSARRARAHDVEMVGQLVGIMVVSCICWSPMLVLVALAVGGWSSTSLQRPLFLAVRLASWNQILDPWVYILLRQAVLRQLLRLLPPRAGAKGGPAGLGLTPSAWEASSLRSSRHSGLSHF
- experiment_description: Activity at EP1 receptor at 0.1 uM by FLIPR assay
endpoint: Activity (%)

Use these answered entries as a reference point.
Cc1cn(Cc2ccc(Cl)cc2Cl)c2c(-c3nc(NS(=O)(=O)c4cc(Cl)c(Cl)s4)no3)cc(F)cc12	5
Cc1cn(Cc2ccc3ccccc3c2)c2c(-c3cc(NS(=O)(=O)c4cc(Cl)c(Cl)s4)no3)cc(F)cc12	-10
Cc1cn(Cc2ccc3ccccc3c2)c2c(-c3cc(NS(=O)(=O)c4ccc(Cl)c(Cl)c4)no3)cc(F)cc12	2

[a] Cc1cn(Cc2ccc(Cl)cc2Cl)c2c(-c3nnc(NC(=O)c4ccc(F)c(F)c4)o3)cc(F)cc12
[b] Cc1cn(Cc2ccc3ccccc3c2)c2c(-c3cc(NS(=O)(=O)c4cc(F)c(F)cc4F)no3)cc(F)cc12
// max by Activity over [ a , b ] Label of pick, please.
b
(b: -2%, a: -7%)

----------
- study_target: Prostaglandin E2 receptor EP4 subtype (Homo sapiens)
- experiment_description: Activity at EP4 receptor at 10 uM by FLIPR assay
endpoint: Activity (%)

[a] Cc1cn(Cc2ccc(Cl)cc2Cl)c2c(-c3nc(NS(=O)(=O)c4cc(Cl)c(Cl)s4)no3)cc(F)cc12
[b] Cc1cn(Cc2ccc3ccccc3c2)c2c(-c3cc(NS(=O)(=O)c4ccc(F)c(F)c4)no3)cc(F)cc12
[c] Cc1cn(Cc2ccc(F)c(F)c2)c2c(-c3cc(NS(=O)(=O)c4ccc(F)c(F)c4F)no3)cc(F)cc12
Put the molecules in ascending order of Activity. Labels, ranked as asked.
b, a, c
